Value kind: melting point

Known melting point results, listed for orientation:
• CN1CCN(c2ccc(C(=O)N3CCCCc4ccccc43)c(Cl)c2)CC1 = 138 to 140 °C
• COc1cc(NCc2ccccc2C)ccc1C(=O)N1CCCC(CC(=O)N2CCN(C)CC2)c2cc(Cl)ccc21 (stereo not drawn) = 153 to 154.5 °C
• Cc1cc(NC(=O)CO)ccc1C(=O)N1CCCCc2cc(Cl)ccc21 = 194 to 195 °C
• COc1cc(C(=O)N2CCCCc3cc(Cl)ccc32)ccc1NC(=O)N(C)C = 230 to 232 °C
• O=C(Nc1ccc(C(=O)N2CCCCc3ccccc32)c(Cl)c1)OCCOc1ccccc1 = 144 to 146 °C
• O=C(c1ccc(-c2ccccc2)cc1Cl)N1CCCC(Cc2nnn[nH]2)c2ccccc21 (stereo not drawn) = 191 to 194 °C
• O=C(Nc1ccc(C(=O)N2CCCCc3ccccc32)c(Cl)c1)OCc1ccncc1 = 181 to 184 °C
• O=C(O)CC1CCCN(C(=O)c2ccc(NC(=O)COc3ccccc3)cc2)c2ccccc21 (stereo not drawn) = 102 to 106 °C

Now look at this entry.
Qu. Report melting point for COc1cc(NCCOc2ccccc2C)ccc1C(=O)N1CCCC(CC(=O)N2CCN(C)CC2)c2cc(Cl)ccc21 (stereo not drawn) please.
Ans. 160 to 161 °C

These data points were gathered from patent US6335327B1.
